# Tested system: hTPC2 (TPC2; TPCN2; hTPC2-EGFP) (Homo sapiens)
# Sequence (Q8NHX9 whole entry): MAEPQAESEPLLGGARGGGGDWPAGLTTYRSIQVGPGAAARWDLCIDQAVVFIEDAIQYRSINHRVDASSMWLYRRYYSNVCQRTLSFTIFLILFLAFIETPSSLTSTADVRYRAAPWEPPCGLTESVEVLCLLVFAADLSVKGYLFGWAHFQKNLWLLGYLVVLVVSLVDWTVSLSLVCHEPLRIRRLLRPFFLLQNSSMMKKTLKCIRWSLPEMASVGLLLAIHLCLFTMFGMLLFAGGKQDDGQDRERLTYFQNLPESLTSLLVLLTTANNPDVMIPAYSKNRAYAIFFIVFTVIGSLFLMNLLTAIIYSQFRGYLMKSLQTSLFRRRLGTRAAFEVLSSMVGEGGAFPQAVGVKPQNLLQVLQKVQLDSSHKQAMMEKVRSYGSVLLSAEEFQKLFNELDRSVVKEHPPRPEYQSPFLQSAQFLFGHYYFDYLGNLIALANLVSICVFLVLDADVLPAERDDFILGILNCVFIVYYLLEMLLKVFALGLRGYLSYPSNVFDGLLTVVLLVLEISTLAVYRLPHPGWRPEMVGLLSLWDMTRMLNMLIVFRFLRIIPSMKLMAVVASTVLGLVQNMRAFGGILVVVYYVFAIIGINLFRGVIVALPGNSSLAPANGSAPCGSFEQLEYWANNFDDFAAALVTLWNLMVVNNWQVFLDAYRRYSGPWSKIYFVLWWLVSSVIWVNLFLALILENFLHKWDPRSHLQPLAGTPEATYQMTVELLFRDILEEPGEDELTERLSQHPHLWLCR
# Test description: whole-endolysosome patch clamp
Measure: pEC50
Units for pEC50: none; it is -log10 of a concentration expressed in mol/L.

Entry CCCCCCCC(=O)OC[C@H](COP(=O)(O)O[C@@H]1[C@H](O)[C@H](OP(=O)(O)O)[C@@H](O)[C@H](OP(=O)(O)O)[C@H]1O)OC(=O)CCCCCCC [diC8 PI(3,5)P2] , system hTPC2 (TPC2; TPCN2; hTPC2-EGFP) (Homo sapiens): what pEC50 was measured?
6.41
